molecular target: NR1a/NR2B (Rattus norvegicus, UniProt P35439+Q00960); assay: Electrophysiological assay at NMDA receptor subunits expressed in Xenopus oocytes (two-electrode voltage clamp); assay type: cell-based; conditions: Table 3; cloned rat NMDA receptor subunits in Xenopus oocytes; read-out: NR1a/NR2B Oocyte IC50
Sequence (Q00960 27-1482, other chains not shown): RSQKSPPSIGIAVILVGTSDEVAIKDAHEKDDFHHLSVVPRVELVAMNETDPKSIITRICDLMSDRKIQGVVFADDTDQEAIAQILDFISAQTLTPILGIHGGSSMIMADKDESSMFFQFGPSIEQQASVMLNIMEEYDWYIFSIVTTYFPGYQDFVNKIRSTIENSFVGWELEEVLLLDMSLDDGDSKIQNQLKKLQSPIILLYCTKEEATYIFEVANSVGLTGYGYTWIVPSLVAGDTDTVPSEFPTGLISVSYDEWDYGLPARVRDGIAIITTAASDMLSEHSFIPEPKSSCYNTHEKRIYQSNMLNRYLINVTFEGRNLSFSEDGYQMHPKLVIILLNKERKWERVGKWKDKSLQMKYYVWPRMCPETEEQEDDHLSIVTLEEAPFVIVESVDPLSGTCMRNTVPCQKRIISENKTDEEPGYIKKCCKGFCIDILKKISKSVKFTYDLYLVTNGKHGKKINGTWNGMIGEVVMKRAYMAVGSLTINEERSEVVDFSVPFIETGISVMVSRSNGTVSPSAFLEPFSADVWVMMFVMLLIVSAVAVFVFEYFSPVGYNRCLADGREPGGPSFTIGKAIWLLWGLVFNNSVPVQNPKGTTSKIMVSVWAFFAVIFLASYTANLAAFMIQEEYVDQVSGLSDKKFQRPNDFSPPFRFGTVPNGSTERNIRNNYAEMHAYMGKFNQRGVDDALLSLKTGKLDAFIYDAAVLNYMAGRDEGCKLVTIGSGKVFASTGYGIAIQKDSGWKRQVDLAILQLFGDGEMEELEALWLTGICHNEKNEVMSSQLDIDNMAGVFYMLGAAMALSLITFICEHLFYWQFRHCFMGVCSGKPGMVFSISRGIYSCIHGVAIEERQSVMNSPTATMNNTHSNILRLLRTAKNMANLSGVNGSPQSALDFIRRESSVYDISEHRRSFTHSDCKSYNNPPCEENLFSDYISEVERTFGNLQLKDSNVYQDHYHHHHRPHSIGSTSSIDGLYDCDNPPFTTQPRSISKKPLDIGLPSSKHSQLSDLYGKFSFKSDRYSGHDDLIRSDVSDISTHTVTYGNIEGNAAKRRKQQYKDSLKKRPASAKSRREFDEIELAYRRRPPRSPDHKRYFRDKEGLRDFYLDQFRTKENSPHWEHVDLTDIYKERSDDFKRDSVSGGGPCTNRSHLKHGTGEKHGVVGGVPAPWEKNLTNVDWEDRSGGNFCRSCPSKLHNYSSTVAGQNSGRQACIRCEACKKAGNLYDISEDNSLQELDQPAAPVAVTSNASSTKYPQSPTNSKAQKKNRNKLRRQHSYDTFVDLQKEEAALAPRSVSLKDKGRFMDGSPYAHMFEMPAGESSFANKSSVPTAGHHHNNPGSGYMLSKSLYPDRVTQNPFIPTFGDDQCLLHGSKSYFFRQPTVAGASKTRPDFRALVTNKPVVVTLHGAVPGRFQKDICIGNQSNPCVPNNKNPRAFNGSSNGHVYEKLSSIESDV
Measured IC50, listed per entry for reference.
Write the value in µM as a bare number.

Known results for molecules:
{"molecule": "Oc1ccc([C@H]2CC[C@@H](NCCCc3ccccn3)CC2)cc1 [Example 15a]", "endpoint-value": 11.5}
{"molecule": "Oc1ccc([C@H]2CC[C@H](NCc3cccnc3)CC2)cc1 [Example 7b]", "endpoint-value": 100}

Q: Which measured IC50 belongs to Oc1ccc([C@H]2CC[C@@H](NCc3cccnc3)CC2)cc1 [Example 7a] , tested on NR1a/NR2B (Rattus norvegicus, UniProt P35439+Q00960)?
Ans: 135

Q: Test system NR1a/NR2B (Rattus norvegicus, UniProt P35439+Q00960); read-out IC50; what value for Oc1ccc([C@H]2CC[C@H](NCCCc3ccccn3)CC2)cc1 [Example 15b] ?
Ans: 0.53
